The following molecules each carry a recorded Ki for Carbonic anhydrase 1 (Homo sapiens, UniProt P00915).
Measured parameter: Ki (nM)

// solved cases for Ki follow
{"Chemical smiles": "NS(=O)(=O)c1ccc(NS(=O)(=O)c2ccc(N/C(S)=N/N3CCOCC3)cc2)cc1", "System name": "Carbonic anhydrase 1 (Homo sapiens, UniProt P00915)", "Ki [nM]": 233}
{"Chemical smiles": "NS(=O)(=O)c1ccc(CNS(=O)(=O)c2ccc(NC(=S)NCCc3ccccc3)cc2)cc1", "System name": "Carbonic anhydrase 1 (Homo sapiens, UniProt P00915)", "Ki [nM]": 8.6}
{"Chemical smiles": "NS(=O)(=O)c1ccc(CNS(=O)(=O)c2ccc(N/C(S)=N/CCN3CCOCC3)cc2)cc1", "System name": "Carbonic anhydrase 1 (Homo sapiens, UniProt P00915)", "Ki [nM]": 3.1}
{"Chemical smiles": "CN1CCN(CC/N=C(\\S)Nc2ccc(S(=O)(=O)Nc3ccc(S(N)(=O)=O)cc3)cc2)CC1", "System name": "Carbonic anhydrase 1 (Homo sapiens, UniProt P00915)", "Ki [nM]": 175}

I: CN(C)CC/N=C(\S)Nc1ccc(S(=O)(=O)NCc2ccc(S(N)(=O)=O)cc2)cc1
II: NS(=O)(=O)c1ccc(NS(=O)(=O)c2ccc(N/C(S)=N/CCN3CCOCC3)cc2)cc1
Select the item with the higher value of Ki from the options I and II listed. Could you answer with the label of the item you picked?
I
